Target: MAP3K1 (human)
Assay: KINOMEscan competition binding
Conditions: compound 10.0 µM
Recorded Endpoint: kinase still bound, per cent of control (%)

1) COc1cc2ncnc(Nc3cccc(Cl)c3)c2cc1OC | 16
2) CCN1CCN(Cc2ccc(NC(=O)c3ccc(C)c(/C=C/c4cnc5[nH]ccc5c4OC)c3)cc2C(F)(F)F)CC1 | 71
3) COc1cc2c(Nc3ccc(NC(=O)c4ccccc4)cc3)ncnc2cc1OCCCN1CCOCC1 | 92
4) Cc1cn(-c2cc(C(=O)Nc3ccc(C)c(NC(=O)c4ccno4)c3)cc(C(F)(F)F)c2)cn1 | 100
5) CCc1nc(-c2cccc(C)c2)c(-c2ccnc(NC(=O)c3ccccc3)c2)s1 | 90

###

Molecular target: MAPK3 (human)
Experiment: KINOMEscan competition binding
Conditions: compound 10.0 µM
# maps each entry to its kinase still bound, per cent of control
Recorded Endpoint: kinase still bound, per cent of control (%)

1) COc1cc2c(Nc3ccc(NC(=O)c4ccccc4)cc3)ncnc2cc1OCCCN1CCOCC1 | 100
2) COc1cc(N2CCC(C(N)=O)CC2)ccc1Nc1nc(N)c(Cl)c(Nc2ccccc2S(=O)(=O)C(C)C)n1 | 100
3) CC(=O)c1c(C)c2cnc(Nc3ccc(N4CCNCC4)cn3)nc2n(C2CCCC2)c1=O | 64
4) O=c1[nH]c2ccccc2n1C1CCN(Cc2ccc(-c3nc4cc5[nH]cnc5cc4nc3-c3ccccc3)cc2)CC1 | 100
5) C=CC(=O)Nc1ccc(C(=O)c2sc(Nc3ccc(N4CCN(C)CC4)cc3OC)nc2N)cc1 | 100
6) CCOc1cc(N2CCC(O)CC2)ccc1Nc1ncc2c(n1)N(C)c1ccccc1C(=O)N2C | 100
7) CCCS(=O)(=O)Nc1ccc(F)c(C(=O)c2c[nH]c3ncc(Cl)cc23)c1F | 100
8) COc1cc(C)c(Sc2cnc(NC(=O)c3ccc(CNC(C)C(C)C)cc3)s2)cc1C(=O)N1CCN(C(C)=O)CC1 (centres undefined) | 100
9) CC1=C(C(=O)Nc2cc3cn[nH]c3cc2F)C(c2ccc(C(F)(F)F)cc2)CC(=O)N1 (centres undefined) | 53

###

Molecular target: MAPK14 (human) (UniProt Q16539)
Sequence (Q16539 whole entry, looked up): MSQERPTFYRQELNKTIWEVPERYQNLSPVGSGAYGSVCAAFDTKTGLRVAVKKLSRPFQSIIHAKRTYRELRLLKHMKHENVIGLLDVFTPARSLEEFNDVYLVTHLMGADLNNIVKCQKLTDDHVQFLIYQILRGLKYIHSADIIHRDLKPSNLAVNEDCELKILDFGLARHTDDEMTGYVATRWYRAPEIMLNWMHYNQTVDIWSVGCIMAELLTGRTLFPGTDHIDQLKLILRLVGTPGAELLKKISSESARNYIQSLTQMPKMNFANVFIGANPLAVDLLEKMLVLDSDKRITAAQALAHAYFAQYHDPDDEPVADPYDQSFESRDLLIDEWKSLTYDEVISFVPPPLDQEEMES
Assay: KINOMEscan competition binding
Conditions: compound 10.0 µM
Overview of recorded kinase still bound, per cent of control for various molecules
Recorded Endpoint: kinase still bound, per cent of control (%)

1. Cc1cn(-c2cc(C(=O)Nc3ccc(C)c(NC(=O)c4ccno4)c3)cc(C(F)(F)F)c2)cn1 | 0.3
2. COc1cc2ncnc(Nc3cccc(Cl)c3)c2cc1OC | 63
3. CCCS(=O)(=O)Nc1ccc(F)c(C(=O)c2c[nH]c3ncc(Cl)cc23)c1F | 60
4. CCOc1cc(N2CCC(O)CC2)ccc1Nc1ncc2c(n1)N(C)c1ccccc1C(=O)N2C | 100
5. COc1cc2c(Nc3ccc(NC(=O)c4ccccc4)cc3)ncnc2cc1OCCCN1CCOCC1 | 100

###

Target: TYK2 JH2 pseudokinase (human) (UniProt P29597)
Sequence (P29597 whole entry, looked up): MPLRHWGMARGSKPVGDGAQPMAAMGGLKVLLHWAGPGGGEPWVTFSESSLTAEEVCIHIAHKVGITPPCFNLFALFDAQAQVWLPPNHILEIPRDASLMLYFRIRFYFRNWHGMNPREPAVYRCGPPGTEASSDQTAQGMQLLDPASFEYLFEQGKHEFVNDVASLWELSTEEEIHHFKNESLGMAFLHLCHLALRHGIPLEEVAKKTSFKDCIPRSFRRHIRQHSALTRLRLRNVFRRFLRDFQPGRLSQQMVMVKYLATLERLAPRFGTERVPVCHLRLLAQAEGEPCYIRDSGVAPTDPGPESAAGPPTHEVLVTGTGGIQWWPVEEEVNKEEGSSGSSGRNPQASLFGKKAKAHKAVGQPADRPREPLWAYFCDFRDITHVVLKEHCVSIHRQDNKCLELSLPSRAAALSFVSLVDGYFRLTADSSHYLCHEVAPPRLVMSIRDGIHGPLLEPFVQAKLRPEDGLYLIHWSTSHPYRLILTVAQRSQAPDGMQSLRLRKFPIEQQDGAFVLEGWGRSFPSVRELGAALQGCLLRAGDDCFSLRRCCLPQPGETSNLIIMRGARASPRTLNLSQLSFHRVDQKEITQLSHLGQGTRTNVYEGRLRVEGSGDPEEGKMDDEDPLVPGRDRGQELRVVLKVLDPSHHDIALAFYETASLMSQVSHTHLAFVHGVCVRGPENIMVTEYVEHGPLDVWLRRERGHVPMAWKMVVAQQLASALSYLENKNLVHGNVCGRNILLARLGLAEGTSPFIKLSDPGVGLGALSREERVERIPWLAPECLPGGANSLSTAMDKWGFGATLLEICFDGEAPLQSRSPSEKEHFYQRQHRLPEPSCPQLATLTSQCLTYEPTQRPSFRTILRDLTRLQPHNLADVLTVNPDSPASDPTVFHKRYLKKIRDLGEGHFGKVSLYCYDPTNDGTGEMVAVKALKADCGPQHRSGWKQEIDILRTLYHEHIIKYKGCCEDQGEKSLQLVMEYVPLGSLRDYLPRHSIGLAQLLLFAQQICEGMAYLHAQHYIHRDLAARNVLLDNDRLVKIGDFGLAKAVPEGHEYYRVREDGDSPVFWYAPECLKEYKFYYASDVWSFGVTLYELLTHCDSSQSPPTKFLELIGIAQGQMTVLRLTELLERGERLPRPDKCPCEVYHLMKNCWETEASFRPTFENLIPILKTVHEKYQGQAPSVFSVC
Assay: KINOMEscan competition binding
Conditions: compound 10.0 µM
Property: kinase still bound, per cent of control; scope: individual compounds
Recorded Endpoint: kinase still bound, per cent of control (%)

1) C=CC(=O)Nc1ccc(C(=O)c2sc(Nc3ccc(N4CCN(C)CC4)cc3OC)nc2N)cc1 | 66
2) COc1cc2ncnc(Nc3cccc(Cl)c3)c2cc1OC | 55
3) CCCS(=O)(=O)Nc1ccc(F)c(C(=O)c2c[nH]c3ncc(Cl)cc23)c1F | 100
4) CCN1CCN(Cc2ccc(NC(=O)c3ccc(C)c(/C=C/c4cnc5[nH]ccc5c4OC)c3)cc2C(F)(F)F)CC1 | 100
5) COc1cc(N2CCC(C(N)=O)CC2)ccc1Nc1nc(N)c(Cl)c(Nc2ccccc2S(=O)(=O)C(C)C)n1 | 100
6) N#Cc1cc(-c2ccnc(Nc3ccc(-n4cnc(-c5cccnc5)n4)cc3)n2)cc(N2CCOCC2)c1 | 12
7) CNC(=O)Nc1ccc(-c2nc(N3CC4CCC(C3)O4)c3cnn(C4CCC5(CC4)OCCO5)c3n2)cc1 | 100

Cited source: the kinase profiling compilation of Christmann-Franck et al. (2016)
